- Target Under Test: Chymotrypsinogen B (Homo sapiens)
- Sequence (P17538 34-164 limits assumed, other chains not shown): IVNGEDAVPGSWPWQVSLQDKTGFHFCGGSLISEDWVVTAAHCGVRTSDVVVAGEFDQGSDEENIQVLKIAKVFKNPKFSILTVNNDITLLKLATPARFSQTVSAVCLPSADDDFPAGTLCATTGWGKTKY
- Sequence (P17538 167-263 limits assumed, other chains not shown): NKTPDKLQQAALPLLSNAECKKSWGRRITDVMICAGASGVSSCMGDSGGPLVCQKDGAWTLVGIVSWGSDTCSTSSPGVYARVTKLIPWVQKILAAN
- Measurement Description: Inhibition constant against Alpha-chymotrypsin inhibitor was determined
pKi: −log10 of the molar value.
Outcome Measure: pKi

Find the recorded pKi belonging to `CC(C)(C)OC(=O)N1C(=O)C(=O)c2ccccc21` and report it.
< 2.70

* * *

- Target Under Test: Chymotrypsinogen B (Homo sapiens)
- Measurement Description: Inhibition constant against alpha-chymotrypsin
Outcome Measure: pKi
Just so you know, pKi here is -log10 of the concentration in molar units; reply with that number alone.

Given the compound `O=C1C(=O)N(C(=O)OCc2ccccc2)c2ccccc21` , what is its reported pKi?
5.42
